Cited source for all entries: the supplement of paper PMC10567573

B1: CHMP4C (parent)
chain: TNIRLPNVPSSSLPAQPNRKPGMS

variants of: B1; assay: protein stability index of a GFP-peptide fusion (GPS, HEK-293T) (PSI 1-6); higher = more stable; conditions: c terminus: a fixed tail appended;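 further: lentivirally expressed fusions sorted by FACS into six bins by GFP to DsRed ratio, PSI derived from sequencing read proportions per bin multiplied by bin number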
quantity: protein stability index

# count of solved cases: 8
# sequence-variant, quantity, result-value
rows = [
    ("V8G", "protein stability index", 4.47),
    ("T1A", "protein stability index", 4.63),
    ("A15K", "protein stability index", 4.58),
    ("L13Y", "protein stability index", 4.1),
    ("N2V", "protein stability index", 4.16),
    ("T1F", "protein stability index", 3.6),
    ("L13M", "protein stability index", 4.6),
    ("S11A", "protein stability index", 4.87),
]

Query string: Determine its reported protein stability index: `Q16H`
Result string: 4.44

Query string: Give me measured protein stability index, please, for this variant: `L5M`
Result string: 4.76

Query string: Name the recorded protein stability index of the item `Q16M` in your answer.
Result string: 3.7

Query string: Please indicate protein stability index recorded for `P21I`
Result string: 4.31

Query string: Supply recorded protein stability index for `S11M` here.
Result string: 3.73

Query string: State its protein stability index for this variant: `P6V`
Result string: 3.1

Query string: Recall and state the measured protein stability index for `M23W` .
Result string: 3.96
